The measured values listed here are drawn from ChEMBL document CHEMBL1133556.

Target protein (sequence): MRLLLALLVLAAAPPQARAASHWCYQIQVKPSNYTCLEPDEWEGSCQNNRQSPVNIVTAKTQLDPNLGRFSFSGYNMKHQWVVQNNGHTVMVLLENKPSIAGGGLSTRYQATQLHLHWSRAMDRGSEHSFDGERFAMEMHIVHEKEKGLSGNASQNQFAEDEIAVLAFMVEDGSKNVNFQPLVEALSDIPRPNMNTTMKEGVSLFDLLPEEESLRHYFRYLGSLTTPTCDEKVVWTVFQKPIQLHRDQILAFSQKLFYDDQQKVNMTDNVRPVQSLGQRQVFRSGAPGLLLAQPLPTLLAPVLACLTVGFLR
pKi: −log10 of the molar value. Residues, ends and D or L forms follow the SMILES beside them. *: point of attachment. X1 = NS(=O)(=O)c1ccc(NC(=S)*)cc1
measurement_kind: pKi

[
  {
    "compound": "CC(C)CC(/N=C(\\S)Nc1ccc(S(N)(=O)=O)cc1)C(=O)O (centres undefined)",
    "pKi": 7.92
  },
  {
    "compound": "NS(=O)(=O)c1ccc(NC(=S)N[C@@H](CC(=O)O)C(=O)N[C@@H](CC(=O)O)C(=O)N[C@@H](CC(=O)O)C(=O)N[C@@H](CC(=O)O)C(=O)O)cc1 (X1-DDDD-OH)",
    "pKi": 7.57
  }
]

P = NS(=O)(=O)c1ccc(N/C(S)=N/C(Cc2ccc(O)c(O)c2)C(=O)O)cc1 (centres undefined)
Q = NS(=O)(=O)c1ccc(N/C(S)=N\CCC(=O)O)cc1
Q) Sorting by pKi in descending order, would P or Q appear first? Bench note: the answer is the label of the chosen record.
A) P
(P: 7.74, Q: 7.46)
